Quick list: pEC50 per entry.
# MEASURED ON: Human STING (Homo sapiens, UniProt Q86WV6, G230A/H232R/R293Q/R71H)
# Sequence (Q86WV6 whole entry R71H/G230A/H232R/R293Q): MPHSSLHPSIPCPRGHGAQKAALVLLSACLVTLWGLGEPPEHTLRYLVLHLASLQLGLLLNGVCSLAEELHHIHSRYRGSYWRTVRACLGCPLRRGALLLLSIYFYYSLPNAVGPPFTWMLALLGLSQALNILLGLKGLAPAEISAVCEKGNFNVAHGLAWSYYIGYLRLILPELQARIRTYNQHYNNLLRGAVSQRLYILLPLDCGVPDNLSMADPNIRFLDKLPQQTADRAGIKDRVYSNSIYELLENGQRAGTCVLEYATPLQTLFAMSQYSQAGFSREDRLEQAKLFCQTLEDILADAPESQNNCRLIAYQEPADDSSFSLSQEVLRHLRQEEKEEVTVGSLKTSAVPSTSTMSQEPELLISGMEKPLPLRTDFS
# PROTOCOL DETAILS: Reporter gene assay, human STING agonist activity, THP1-Dual cells (HAQ-mutated), IRF pathway
# SETUP CONDITIONS: THP1-Dual cells IRF EC50, THP1-Dual cells (HAQ-mutated), 24 hours; 100% = maximum count with ML-RR-CDA·2Na+
Bear in mind: pEC50 is minus log10 of a mol/L concentration; give just that figure.

[
  {
    "COMPOUND": "Nc1nc(NCCO)nc2c1ncn2[C@@H]1O[C@@H]2COP(=O)(S)O[C@H]3[C@@H](O)[C@H](n4cc5c6c(ncnc64)NCCC5)O[C@@H]3COP(=O)(S)O[C@@H]1[C@@H]2O (single isomer, unassigned) [9b]",
    "pEC50": 5.62
  },
  {
    "COMPOUND": "O=c1[nH]cnc2c1ncn2[C@@H]1O[C@@H]2COP(=O)(S)O[C@H]3[C@@H](O)[C@H](n4cc5c6c(ncnc64)NCCC5)O[C@@H]3COP(=O)(S)O[C@@H]1[C@@H]2O (single isomer, unassigned) [25b]",
    "pEC50": 6.05
  },
  {
    "COMPOUND": "Nc1ncnc2c1ncn2[C@@H]1O[C@@H]2COP(=O)(S)O[C@H]3[C@@H](O)[C@H](n4cc5c6c(ncnc64)NCCC5)O[C@@H]3COP(=O)(S)O[C@@H]1[C@@H]2O (single isomer, unassigned) [2a]",
    "pEC50": 5.33
  },
  {
    "COMPOUND": "O=c1c2ncn([C@@H]3O[C@@H]4COP(=O)(S)O[C@H]5[C@@H](O)[C@H](n6cc7c8c(ncnc86)NCCC7)O[C@@H]5COP(=O)(S)O[C@@H]3[C@@H]4F)c2ncn1CCO (single isomer, unassigned) [39a]",
    "pEC50": 6.72
  },
  {
    "COMPOUND": "O=P1(S)OC[C@H]2O[C@@H](n3cc4c5c(ncnc53)NCCC4)[C@H](O)[C@@H]2OP(=O)(S)OC[C@H]2O[C@@H](n3cnc4c(CO)ncnc43)[C@H](O1)[C@@H]2O (single isomer, unassigned) [17b]",
    "pEC50": 6.00
  },
  {
    "COMPOUND": "Nc1ncnc2c1ncn2[C@@H]1O[C@@H]2COP(=O)(S)O[C@H]3[C@@H](O)[C@H](n4cc5c6c(ncnc64)OCCC5)O[C@@H]3COP(=O)(S)O[C@@H]1[C@@H]2O (single isomer, unassigned) [21b]",
    "pEC50": 6.15
  }
]

Asked: # returns recorded pEC50 (system: Human STING (Homo sapiens, UniProt Q86WV6, G230A/H232R/R293Q/R71H)) for Nc1ncnc2c1ncn2[C@@H]1O[C@@H]2COP(=O)(S)O[C@H]3[C@@H](O)[C@H](n4cc5c6c(ncnc64)SCCC5)O[C@@H]3COP(=O)(S)O[C@@H]1[C@@H]2O (single isomer, unassigned) [23a]
Given back: 5.59

Asked: # returns recorded pEC50 (system: Human STING (Homo sapiens, UniProt Q86WV6, G230A/H232R/R293Q/R71H)) for O=c1c2ncn([C@@H]3O[C@@H]4COP(=O)(O)O[C@H]5[C@@H](F)[C@H](n6cc7c8c(ncnc86)NCCC7)O[C@@H]5COP(=O)(O)O[C@@H]3[C@@H]4O)c2ncn1CCO [compound 54]
Given back: 5.40

Asked: # returns recorded pEC50 (system: Human STING (Homo sapiens, UniProt Q86WV6, G230A/H232R/R293Q/R71H)) for O=c1c2ncn([C@@H]3O[C@@H]4COP(=O)(S)O[C@H]5[C@@H](F)[C@H](n6cc7c8c(ncnc86)NCCC7)O[C@@H]5COP(=O)(S)O[C@@H]3[C@@H]4F)c2ncn1CCO (single isomer, unassigned) [44b]
Given back: 6.46

Asked: # returns recorded pEC50 (system: Human STING (Homo sapiens, UniProt Q86WV6, G230A/H232R/R293Q/R71H)) for NCCn1cnc2c(ncn2[C@@H]2O[C@@H]3COP(=O)(S)O[C@H]4[C@@H](F)[C@H](n5cc6c7c(ncnc75)SCCC6)O[C@@H]4COP(=O)(S)O[C@@H]2[C@@H]3O)c1=O (single isomer, unassigned) [49b]
Given back: 6.39

Asked: # returns recorded pEC50 (system: Human STING (Homo sapiens, UniProt Q86WV6, G230A/H232R/R293Q/R71H)) for O=c1c2ncn([C@@H]3O[C@@H]4COP(=O)(S)O[C@H]5[C@@H](F)[C@H](n6cc7c8c(ncnc86)NCCC7)O[C@@H]5COP(=O)(S)O[C@@H]3[C@@H]4F)c2ncn1CCO (single isomer, unassigned) [44a]
Given back: 6.68

Asked: # returns recorded pEC50 (system: Human STING (Homo sapiens, UniProt Q86WV6, G230A/H232R/R293Q/R71H)) for Nc1ncnc2c1ncn2[C@@H]1O[C@@H]2COP(=O)(S)O[C@H]3[C@@H](O)[C@H](n4cc5c6c(ncnc64)NCCC5)O[C@@H]3COP(=O)(S)O[C@@H]1[C@@H]2O (single isomer, unassigned) [1b]
Given back: 6.52

Asked: # returns recorded pEC50 (system: Human STING (Homo sapiens, UniProt Q86WV6, G230A/H232R/R293Q/R71H)) for O=c1[nH]cnc2c1ncn2[C@@H]1O[C@@H]2COP(=O)(S)O[C@H]3[C@@H](O)[C@H](n4cc5c6c(ncnc64)NCCC5)O[C@@H]3COP(=O)(S)O[C@@H]1[C@@H]2O (single isomer, unassigned) [25a]
Given back: 5.89

Asked: # returns recorded pEC50 (system: Human STING (Homo sapiens, UniProt Q86WV6, G230A/H232R/R293Q/R71H)) for NCCNc1nc(N)c2ncn([C@@H]3O[C@@H]4COP(=O)(S)O[C@H]5[C@@H](F)[C@H](n6cc7c8c(ncnc86)NCCC7)O[C@@H]5COP(=O)(S)O[C@@H]3[C@@H]4F)c2n1 (single isomer, unassigned) [45b]
Given back: 5.51

Asked: # returns recorded pEC50 (system: Human STING (Homo sapiens, UniProt Q86WV6, G230A/H232R/R293Q/R71H)) for Nc1nc2c(ncn2[C@@H]2O[C@@H]3COP(=O)(S)O[C@H]4[C@@H](O)[C@H](n5cc6c7c(ncnc75)NCCC6)O[C@@H]4COP(=O)(S)O[C@@H]2[C@@H]3O)c(=O)[nH]1 (single isomer, unassigned) [4b]
Given back: 5.82

Asked: # returns recorded pEC50 (system: Human STING (Homo sapiens, UniProt Q86WV6, G230A/H232R/R293Q/R71H)) for O=c1c2ncn([C@@H]3O[C@@H]4COP(=O)(S)O[C@H]5[C@@H](F)[C@H](n6cc7c8c(ncnc86)SCCC7)O[C@@H]5COP(=O)(S)O[C@@H]3[C@@H]4O)c2ncn1CCO (single isomer, unassigned) [48a]
Given back: 7.46

Asked: # returns recorded pEC50 (system: Human STING (Homo sapiens, UniProt Q86WV6, G230A/H232R/R293Q/R71H)) for NCCNc1nc(N)c2ncn([C@@H]3O[C@@H]4COP(=O)(S)O[C@H]5[C@@H](F)[C@H](n6cc7c8c(ncnc86)SCCC7)O[C@@H]5COP(=O)(S)O[C@@H]3[C@@H]4F)c2n1 (single isomer, unassigned) [51a]
Given back: 6.49

Each recorded value in this set is attributed to patent US12370263B2.
